- experimental.details: PSAC antagonists in infected red cells, primary screen, cell-based, P. falciparum Indochina, OD700, 18 h (AID 1157)
- test.parameters: P. falciparum Indochina infected erythrocytes, osmotic lysis OD700, 18 h; higher = more signal, called active from +8 up or from −8 down
Rule: Y for z-score not less than 1, N for anything less.

Prompt: Dear colleague, could you confirm whether O=C1C2C=CC(C(O)c3cc(C(F)(F)F)cc(C(F)(F)F)c3)N(Nc3ccc([N+](=O)[O-])cc3)C2C(=O)N1c1ccccc1 (centres undefined) has z-score at or above 1?
Completion: Y

Prompt: Dear colleague, could you confirm whether C=CCNC(=O)[C@@H]1[C@H]2C(=O)O[C@H](c3ccccc3)[C@H](c3ccccc3)N2[C@H](c2ccc(OCCO)cc2)[C@@]12C(=O)N(C(=O)OCCOC)c1ccc(C#CC3=CCCCC3)cc12 has z-score at or above 1?
Completion: Y

Prompt: Dear colleague, could you confirm whether COCCOC(=O)N1C(=O)[C@@]2(c3ccccc31)[C@H](c1ccc(OCCO)cc1)N1[C@H](c3ccccc3)[C@H](c3ccccc3)OC(=O)[C@H]1[C@@H]2C(=O)Nc1nc2ccccc2s1 has z-score at or above 1?
Completion: Y

Prompt: Dear colleague, could you confirm whether Cc1ccc(S[C@]2(C(=O)NC(C)C)CC(=O)N(C3Cc4ccccc4C3)[C@@H]2c2ccc(CO)cc2I)cc1 has z-score at or above 1?
Completion: N

Prompt: Dear colleague, could you confirm whether COc1ccc([Si](C)(C)[C@H]2[C@H](CCn3cc(CCO)nn3)O[C@@]3(C(=O)N(Cc4ccc(N5C(=O)c6cccc7cccc5c67)cc4)c4ccccc43)[C@@H]2C)cc1 has z-score at or above 1?
Completion: N

Prompt: Dear colleague, could you confirm whether COCCCNC(=O)[C@@H]1c2ccccc2C(=O)N(Cc2ccccc2C(F)(F)F)[C@H]1c1ccc(CO)cc1 has z-score at or above 1?
Completion: N

Prompt: Dear colleague, could you confirm whether [N-]=[N+]=Nc1ccccc1[C@H]1OC(c2ccc(OCCCO)cc2)=N[C@@]1(CCS(=O)(=O)c1ccccc1)C(=O)N1CCCCC1 has z-score at or above 1?
Completion: Y

Prompt: Dear colleague, could you confirm whether COC(=O)c1c(CC[C@@H](CO)NC(=O)N[C@H](Cn2cc(-c3ccccc3C)nn2)C(C)C)oc(C(C)=O)c1C(=O)OC has z-score at or above 1?
Completion: N

Prompt: Dear colleague, could you confirm whether CCCCN1CC=CC23O[C@@H]4/C=C\CCC(C)OC(=O)C4[C@H]2C(=O)N(CCCCCCO)[C@@H]3C1=O (some centres undefined) has z-score at or above 1?
Completion: N

Prompt: Dear colleague, could you confirm whether COCCOC(=O)N1C(=O)[C@@]2(c3cc(C#CC4(O)CCCCCC4)ccc31)[C@H](C(N)=O)[C@H]1C(=O)O[C@H](c3ccccc3)[C@H](c3ccccc3)N1[C@@H]2c1ccccc1OCCO has z-score at or above 1?
Completion: Y

Prompt: Dear colleague, could you confirm whether CCOC(=O)[C@@H]1[C@@H]2C(=O)N(CC)C(=O)[C@@H]2C[C@@H]1Sc1ccccc1 has z-score at or above 1?
Completion: N

Prompt: Dear colleague, could you confirm whether CN1C(=O)C2C=CC(C(O)C3CCCCC3)N(N3CCCCC3)C2C1=O (centres undefined) has z-score at or above 1?
Completion: Y

Prompt: Dear colleague, could you confirm whether COc1cc2c(cc1O)C(C)N(Cc1cc3c(cc1Br)OCO3)CC2 (centres undefined) has z-score at or above 1?
Completion: N
